Overview of reported Kd across a group of compounds:
studyTarget: Mitogen-activated protein kinase 1 (Homo sapiens)
Sequence (P28482 whole entry): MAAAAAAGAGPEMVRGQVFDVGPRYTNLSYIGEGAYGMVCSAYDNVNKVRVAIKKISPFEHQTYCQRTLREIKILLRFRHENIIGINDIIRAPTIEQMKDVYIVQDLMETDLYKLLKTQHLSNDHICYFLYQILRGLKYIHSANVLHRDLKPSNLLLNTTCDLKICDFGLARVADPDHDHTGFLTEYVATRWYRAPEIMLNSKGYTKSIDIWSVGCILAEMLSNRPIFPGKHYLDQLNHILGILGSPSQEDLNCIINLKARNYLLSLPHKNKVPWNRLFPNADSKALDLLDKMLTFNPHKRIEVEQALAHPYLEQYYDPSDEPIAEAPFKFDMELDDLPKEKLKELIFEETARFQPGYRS
assayRemarks: Binding to phosphorylated ERK2 (unknown origin) by temperature dependent fluorescence (TdF) assay

compound	readoutUnit	relation	Kd
O=C(Nc1ccc(O)c(Cl)c1)[C@@H]1CCN(CC(=O)N2CCN(c3cccc(Cl)c3)CC2)C1	nM	=	150
O=C(Nc1ccc(O)cc1)C1CCN(CC(=O)N2CCN(c3cccc(Cl)c3)CC2)C1 (racemic)	nM	=	1650
CC(=O)c1ccc(N2CCN(C(=O)CN3CC[C@@H](C(=O)Nc4ccc(O)c(Cl)c4)C3)CC2)cc1	nM	=	140
CC(=O)c1ccc(N2CCN(C(=O)CN3CCC(C(=O)Nc4ccc(O)c(Cl)c4)C3)CC2)cc1 (racemic)	nM	=	270
CC(=O)c1ccc(N2CCN(C(=O)CN3CC[C@@H](C(=O)Nc4cc(Cl)c(O)c(Cl)c4)C3)CC2)cc1	nM	>	10000
O=C(Nc1ccc(O)c(Cl)c1)[C@@H]1CCN(CC(=O)N2CCN(c3ccc(Br)cc3)CC2)C1	nM	=	2650
O=C(NOC[C@H](O)CO)c1ccc(F)c(F)c1Nc1ccc(I)cc1F	nM	>	10000
O=C(Nc1ccc(O)c(Cl)c1)[C@@H]1CCN(CC(=O)N2CCN(c3ccc(-c4ccsc4)cc3)CC2)C1	nM	=	980
CC(=O)c1ccc(N2CCN(C(=O)CN3CCC(C(=O)Nc4ccc(O)cc4)C3)CC2)cc1 (racemic)	nM	=	1890
O=C(Nc1ccc(O)c(Cl)c1)[C@@H]1CCN(CC(=O)N2CCN(c3ccc(-c4ccccc4)cc3)CC2)C1	nM	=	720
CC(=O)c1ccc(N2CCN(C(=O)CN3CC[C@@H](C(=O)Nc4ccc(O)c(F)c4)C3)CC2)cc1	nM	=	630
CC(=O)c1ccc(N2CCN(C(=O)CN3CC[C@@H](C(=O)Nc4ccc(O)cc4Cl)C3)CC2)cc1	nM	>	10000
O=C(Nc1ccc(O)c(Cl)c1)[C@@H]1CCN(CC(=O)N2CCN(c3nc4ccccc4s3)CC2)C1	nM	=	270
O=C(Nc1ccc(O)c(Cl)c1)[C@@H]1CCN(CC(=O)N2CCN(c3ccc(-c4ccoc4)cc3)CC2)C1	nM	=	330
CC(=O)c1ccc(N2CCN(C(=O)CN3CC[C@H](C(=O)Nc4ccc(O)c(Cl)c4)C3)CC2)cc1	nM	=	870

Ref: ChEMBL document CHEMBL3351461
